Biological target: MAL^TIR (Homo sapiens, UniProt P58753)
Construct: MAL (residues 79–221); 6xHis; made in house; host or cells: E. coli BL21 (DE3)
Sequence (P58753 79-221): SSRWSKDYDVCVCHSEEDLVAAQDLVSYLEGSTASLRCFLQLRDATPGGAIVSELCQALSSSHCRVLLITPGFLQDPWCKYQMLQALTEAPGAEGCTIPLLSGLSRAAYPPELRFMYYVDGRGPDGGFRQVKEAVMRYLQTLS
Assay: T‐Surf phage library (P8 and P3) selection against MAL^TIR, four rounds, NGS read counts
Format: binding
Details: P3_MAL: rank by count before grouping
Rank (before) class ranges: Low: < 1000; Medium: ≥ 1000 and < 2000; High: ≥ 2000

1. NGHGSAIIKEIVVTSW	High
2. FISHLYAALQRKHVET	Low
3. SSCLEGLWRLLELSKK	High
4. RGFLSHLRYHLPAPQH	Low
5. LKVESWRQALEKRAN	Low
6. LNWGDPYFWRKLRYAM	High
7. YAFTGHLHRSLVQSGV	Medium
8. YAFTGYLHRYLVQRGG	Medium
9. SSFREGIWRLLELRKK	High
10. RLLKWGYPWFWDRLRFA	Low
11. NQRRNAVTAAAKLSGC	High
12. HQAFWKRPWAKLKPPT	High
13. VGWFLHTLSQHILKREK	Low
14. DWFLSKLNQHLLKREK	Medium
15. NQWRNALTAASNLSIW	High
16. SFFWNKLRYALTYRPAT	High
17. RLLKWKKRCISFIAG	High
18. DWCLSKLSQHTLKREK	Medium
19. KCFWVTLLYALHRNPR	High
20. YAFTGHLHHYFAAKGIKM	Medium
21. SSFREGLASAGTEQK	Medium
22. WHFPLPLRMQELLRKM	Medium
23. RAFVADLDEALKQRAL	High
24. GWFLNKLSQLILKKEK	Low
25. LVAHAISKKMKLFATI	High
26. LGFLSHLALNLQAKEH	High
27. GRYGELFMTETDVREG	Medium
28. RRLKWKDALHQFHSWV	Low
29. HHNSSYGEALAEHEKR	High
30. RLMKWKEALHPFHSWV	High
31. LELGDPYFWSKLRYAM	High
32. RLLKWKEALQQFHSGV	High
33. RLQKWKEALHQIHSRV	High
34. MSHLYQGLQHRGIFTF	High
35. FLNFRGLYVRNYFLGP	Medium
36. RGFLSHLLLHLQAKDH	High
37. RGLLSHLRHHLLGKDH	High
38. YAFSGHLLHDLVLIRE	Medium
39. YFWHALKNALAVNNDV	Low
40. KEVEGWRDALTAAANLSGW	Low
41. DLFLSKLSQHLLKREK	Medium
42. RGFLSHLYQGLKNRGI	High
43. GFLYQAFAREGLQIFM	Medium
44. SSFREGLWRLLELSK	Low
45. KEVEGWRQALEKAGKL	Low
46. RLLKWKDALYEAANLS	Low
47. PNLRTKVLNYLILTKT	High
48. KMQKWKDALYEAANLSGW	Low
49. RGFLAICVIICRRKI	High
50. YAFTGPPHRYMVQRGV	Medium
51. VLHKFIGYLRDALQHR	Medium
52. NGHESEIIKEIWIPL	High
53. CLLKWKEALHQFHSGV	Medium
54. YAFTGHLPRYLVQRGG	Medium
55. YAFTGHLHRYLCSVA	Low
56. VRQNFISHLYDALHRNRI	Low
57. SSFRKGLCRLLELSKK	High
58. LKVESWRRAPEKAGKL	High
59. KERLHQWKLALTQAANLSGW	Low
60. NQWRNSLTAAANLRGW	High
61. LQNQWKLALTNVASLV	High
62. LKWGDPYFWSKLRFA	High
63. KEVEGWRDALTKVANLV	Low
64. LSVESWRQALEKAGQL	High
65. VRHNFIGYLRDALQHR	Low
66. NQWRNALTAATNLSGG	High
67. FMSHLRHHLQAKDH	Low
68. PNLRTTVLKYLIRTKT	High
69. VRHTFAGYLYDALHRNRI	Medium
70. WHFHLRLRMPDPLQKI	Medium
71. SLCKNLVTNLIEEFNR	High
72. LKEESWRRALERAGKL	High
